Test system: NF-κ B
experiment: Inhibitory activity of NF-κ B activation, luciferase reporter assay in HepG2 under TNF-α stimulation
Format: cell-based, human
condition-info: 1 μg/mL; HepG2, TNF-α (40 ng/ml), 4 hours
// reported Inhibitory Ratio of NF-κ B Activation(%) Drug Concentration 1 μg/mL per item
Reply with just the number (in %).

# count of solved cases: 3
Cc1cc(Oc2ccc(C(F)(F)F)cc2NC(=O)c2cc(Cl)ccc2O)cc(C)c1Cl; 90.7
O=C(Nc1cc(C(F)(F)F)ccc1Cl)c1cc([N+](=O)[O-])ccc1O; 54.3
O=C(Nc1cc(C(F)(F)F)cc(C(F)(F)F)c1)c1cc(N=Nc2ccc(S(=O)(=O)Nc3ccccn3)cc2)ccc1O; 19.4

Task item: Fill in: Inhibitory Ratio of NF-κ B Activation(%) Drug Concentration 1 μg/mL of Cc1ccc(O)c(C(=O)Nc2cc(Cl)cc(Cl)c2)c1 is ___
Reply: 49.1

Task item: Fill in: Inhibitory Ratio of NF-κ B Activation(%) Drug Concentration 1 μg/mL of O=C(Nc1cc(F)ccc1F)c1cc(Cl)ccc1O is ___
Reply: 92.5

Task item: Fill in: Inhibitory Ratio of NF-κ B Activation(%) Drug Concentration 1 μg/mL of COc1ccc(OC)c(NC(=O)c2cc(Cl)ccc2O)c1 is ___
Reply: 52.4

Task item: Fill in: Inhibitory Ratio of NF-κ B Activation(%) Drug Concentration 1 μg/mL of CC(C)NC(=O)c1sc(NC(=O)c2cc(Br)ccc2O)nc1-c1ccccc1 is ___
Reply: 49.6

Task item: Fill in: Inhibitory Ratio of NF-κ B Activation(%) Drug Concentration 1 μg/mL of O=C(Nc1cc(Br)cc(C(F)(F)F)c1)c1cc(Br)ccc1O is ___
Reply: 96.7

Task item: Fill in: Inhibitory Ratio of NF-κ B Activation(%) Drug Concentration 1 μg/mL of O=C(Nc1cc(C(F)(F)F)ccc1F)c1cc(Cl)ccc1O is ___
Reply: 93.1

Task item: Fill in: Inhibitory Ratio of NF-κ B Activation(%) Drug Concentration 1 μg/mL of Cc1ccc(O)c(C(=O)Nc2cc(C(C)(C)C)cc(C(C)(C)C)c2)c1 is ___
Reply: 38.9

Task item: Fill in: Inhibitory Ratio of NF-κ B Activation(%) Drug Concentration 1 μg/mL of COc1ccc(C(N)=O)cc1NC(=O)c1cc(Cl)ccc1O is ___
Reply: 92.1

Task item: Fill in: Inhibitory Ratio of NF-κ B Activation(%) Drug Concentration 1 μg/mL of COc1ccccc1Oc1ccc(C(F)(F)F)cc1NC(=O)c1cc(Cl)ccc1O is ___
Reply: 91.8

Task item: Fill in: Inhibitory Ratio of NF-κ B Activation(%) Drug Concentration 1 μg/mL of COc1ccc(C(F)(F)F)cc1NC(=O)c1cc(Br)ccc1O is ___
Reply: 76.6

Task item: Fill in: Inhibitory Ratio of NF-κ B Activation(%) Drug Concentration 1 μg/mL of CC(=O)Oc1ccc(Cl)cc1C(=O)Nc1cc(C(F)(F)F)cc(C(F)(F)F)c1 is ___
Reply: 96.5

Task item: Fill in: Inhibitory Ratio of NF-κ B Activation(%) Drug Concentration 1 μg/mL of O=C(Nc1cc(C(F)(F)F)ccc1N1CCC(C(F)(F)F)CC1)c1cc(Cl)ccc1O is ___
Reply: 96.5

Task item: Fill in: Inhibitory Ratio of NF-κ B Activation(%) Drug Concentration 1 μg/mL of CC(C)(C)c1cc(NC(=O)c2cc([N+](=O)[O-])ccc2O)cc(C(C)(C)C)c1 is ___
Reply: 91.2

Task item: Fill in: Inhibitory Ratio of NF-κ B Activation(%) Drug Concentration 1 μg/mL of COc1cc(NC(=O)c2cc(Cl)ccc2O)cc(C(F)(F)F)c1 is ___
Reply: 94.6

----------
// reported Inhibitory Ratio of NF-κ B Activation(%) Drug Concentration 1 μg/mL per item
System: NF-κ B
experiment: Inhibitory activity of NF-κ B activation, luciferase reporter assay in HepG2 under TNF-α stimulation
Type: cell-based, human
condition-info: 1 μg/mL; HepG2, TNF-α (40 ng/ml), 4 hours
Reply with just the number (in %).

# count of solved cases: 2
COc1ccc(C(C)(C)C)cc1NC(=O)c1cc(C)ccc1O; 37.4
O=C(Nc1cc(C(F)(F)F)ccc1Oc1ccc2ccccc2c1)c1cc(Cl)ccc1O; 96.5

Task item: Find the measured Inhibitory Ratio of NF-κ B Activation(%) Drug Concentration 1 μg/mL: item COc1ccc(O)c(C(=O)Nc2cc(C(F)(F)F)cc(C(F)(F)F)c2)c1 , target or system NF-κ B.
Reply: 30.7

Task item: Find the measured Inhibitory Ratio of NF-κ B Activation(%) Drug Concentration 1 μg/mL: item CCOC(=O)c1sc(NC(=O)c2cc(-c3ccc(F)cc3F)ccc2O)nc1-c1ccccc1 , target or system NF-κ B.
Reply: 31.8

Task item: Find the measured Inhibitory Ratio of NF-κ B Activation(%) Drug Concentration 1 μg/mL: item O=C(Nc1cc(Cl)cc(Cl)c1)c1cc(Br)cc(Br)c1O , target or system NF-κ B.
Reply: 91.4

Task item: Find the measured Inhibitory Ratio of NF-κ B Activation(%) Drug Concentration 1 μg/mL: item O=C(Nc1ccc(Cl)nc1)c1cc(Cl)ccc1O , target or system NF-κ B.
Reply: 14.3

Task item: Find the measured Inhibitory Ratio of NF-κ B Activation(%) Drug Concentration 1 μg/mL: item O=C(Nc1cc(Br)cc(C(F)(F)F)c1)c1cc(Cl)ccc1O , target or system NF-κ B.
Reply: 97.2

Task item: Find the measured Inhibitory Ratio of NF-κ B Activation(%) Drug Concentration 1 μg/mL: item O=C(Nc1cc(C(F)(F)F)ccc1N1CCCCC1)c1cc(Cl)ccc1O , target or system NF-κ B.
Reply: 90.0

----------
Tested on: NF-κ B
experiment: Inhibitory activity of NF-κ B activation, luciferase reporter assay in HepG2 under TNF-α stimulation
Format: cell-based, human
condition-info: 10 μg/mL; HepG2, TNF-α (40 ng/ml), 4 hours
Label 1 for high-side Inhibitory Ratio of NF-κ B Activation(%) Drug Concentration 10 μg/mL (at or above 90%) and 0 for low-side Inhibitory Ratio of NF-κ B Activation(%) Drug Concentration 10 μg/mL (below it).

Worked examples, 4 compounds total:
O=C(Nc1cc(Cl)cc(Cl)c1)c1ccc(Cl)cc1O; 0
O=C(Nc1cc(F)cc(F)c1)c1cc(Br)ccc1O; 1
CC(=NOCc1ccccc1)c1ccc(O)c(C(=O)Nc2cc(C(F)(F)F)cc(C(F)(F)F)c2)c1; 1
O=C(Nc1cc(C(F)(F)F)cc(C(F)(F)F)c1)c1cc2ccccc2cc1O; 1

Task item: Would you say Cc1ccc(S(=O)(=O)c2ccc(Cl)cc2NC(=O)c2cc(Cl)ccc2O)cc1 shows Inhibitory Ratio of NF-κ B Activation(%) Drug Concentration 10 μg/mL at minimum 90%?
Reply: 1

Task item: Would you say CC(C)(C)c1nc(NC(=O)c2cc(Br)ccc2O)sc1C#N shows Inhibitory Ratio of NF-κ B Activation(%) Drug Concentration 10 μg/mL at minimum 90%?
Reply: 1

Task item: Would you say O=C(Nc1cc(C(F)(F)F)ccc1N1CCCCC1)c1cc(Cl)ccc1O shows Inhibitory Ratio of NF-κ B Activation(%) Drug Concentration 10 μg/mL at minimum 90%?
Reply: 1

Task item: Would you say CCNC(=O)c1sc(NC(=O)c2cc(Br)ccc2O)nc1-c1ccccc1 shows Inhibitory Ratio of NF-κ B Activation(%) Drug Concentration 10 μg/mL at minimum 90%?
Reply: 0

Task item: Would you say O=C(Nc1cc(C(F)(F)F)cc(C(F)(F)F)c1)c1ccc(Cl)cc1O shows Inhibitory Ratio of NF-κ B Activation(%) Drug Concentration 10 μg/mL at minimum 90%?
Reply: 1

----------
// reported IC50 per item
System: PGE2
experiment: Inhibition of PGE2 production by TNFα stimulation in synovial fibroblasts derived from a rheumatoid patient (EIA)
Assay type: cell-based, human
condition-info: synovial fibroblasts, 10 ng/ml TNFα, 3 days; read-out: Inhibition against Mediator Release IC50(nM) PGE2
Reply with just the number (in nM).

# count of solved cases: 3
O=C(Nc1cc(C(F)(F)F)cc(C(F)(F)F)c1)c1cc(-n2cccc2)ccc1O; 532
CC(C)(C)C(=O)c1sc(NC(=O)c2cc(Br)ccc2O)nc1C(C)(C)C; 53
O=C(Nc1cc(C(F)(F)F)cc(C(F)(F)F)c1)c1ccc(Cl)cc1O; 863

Task item: Fill in: IC50 of O=C(Nc1cc(C(F)(F)F)cc(C(F)(F)F)c1)c1cc(-c2ccccc2)ccc1O is ___
Reply: 809

Task item: Fill in: IC50 of O=C(Nc1cc(C(F)(F)F)cc(C(F)(F)F)c1)c1cc(Br)ccc1O is ___
Reply: 358

Task item: Fill in: IC50 of O=C(Nc1cc(C(F)(F)F)cc(C(F)(F)F)c1)c1c(O)cccc1F is ___
Reply: 439

Task item: Fill in: IC50 of COc1ccc(C(F)(F)F)cc1NC(=O)c1cc(Br)ccc1O is ___
Reply: 266

Task item: Fill in: IC50 of O=C(Nc1cc(C(F)(F)F)ccc1Cl)c1cc(Br)ccc1O is ___
Reply: 38
